Test system: HT29 colon
Assay notes: NCI-60 one-dose screen, 48 h (100 = growth as untreated, 0 = no growth, -100 = all killed)
Condition set: 10 µM unless noted
This is part of a sample that, as a whole, favours compounds with a hit. Of some 83,000 tested, about 20% had one in any assay.
Property measured: growth (%)
# unit: % | format: bare number

The cases that follow already have their growth on record.
CCOC(=O)/C(=C/c1ccc([N+](=O)[O-])cc1)C(=O)c1ccccc1 : -23.7
O=c1c(/C=C/c2c(O)ccc3ccccc23)nnc2sc(-c3cccc([N+](=O)[O-])c3)nn12 : 88.8
O=C1C=CC2(O)OC(c3ccccc3)CC(=O)C2=C1O (configuration not stated) : 108
COc1cc2c(cc1-c1c(C)noc1C)ncc1nc(C3CCOCC3)n(C3CCC(OC(F)F)CC3)c12 (configuration not stated) : 25.9
O=C(/C=C/c1cccc([N+](=O)[O-])c1)c1ccc(Nc2nc(Nc3ccc(F)cc3)nc(Nc3ccc(Cl)cc3)n2)cc1 : 88

Exercise: Provide the documented growth with HT29 colon as the system for `CCOC(=O)c1ccc2c(c1)[n+](=O)c(C(C)=O)c(C(F)(F)F)n2[O-]`
Solution: -0.876

Exercise: Provide the documented growth with HT29 colon as the system for Nc1nc(N)c2c(n1)NC(c1ccc3c(c1)OCO3)CC(c1cccc(Nc3ccncc3)c1)=N2 (configuration not stated)
Solution: 61.3

---

System: OVCAR-5 ovarian
Assay notes: NCI-60 one-dose screen, 48 h (100 = growth as untreated, 0 = no growth, -100 = all killed)
Condition set: 10 µM unless noted
About 83,000 compounds went through this panel and 20% of them were active in at least one assay; those are over-represented in the sample as a whole.
Property measured: growth (%)
# unit: % | format: bare number

O=C(Nc1ccc(Cl)cc1)C1=NCCCCN1 : 85.6
CC(C)(C)[C@H](OCc1cn([C@H]2C[C@@H](O)[C@@H](CO)O2)c(=O)[nH]c1=O)c1ccc(C#Cc2ccccc2)cc1[N+](=O)[O-] : 97.6
COCCNC(=O)Cc1cc(-c2ccc(Cl)cc2)n(-c2ccccc2)c1C : 90
COc1ccc(/C=C\c2cc(OC)c(OC)c(OC)c2)cc1OCC(=O)Nc1nc2ccccc2s1 : 65
c1ccc2[nH]c(-c3ccc(-c4nccc5c4[nH]c4ccccc45)cc3)nc2c1 : 129

Here is the next item to consider.
Exercise: I would be grateful if you could share the reported growth for CC1=C(C(=O)OCc2ccccc2)C(c2ccc3c(c2)OCO3)n2c(nc3ccccc32)N1 (stereo unspecified) .
Solution: 64.4

---

Tested on: HOP-62 NSCLC
Assay notes: NCI-60 one-dose screen, 48 h
Condition set: 10 µM unless noted
This is part of a sample that, as a whole, favours compounds with a hit. Of some 83,000 tested, about 20% had one in any assay. Calls of active or inactive are those of the source. Rule for the calls: active = growth percent below 10; inactive = the rest.
Return exactly one item of active, inactive

COC(=O)c1cc(-c2ccc(OC)c(OC)c2)[nH]c1N/N=C/c1c(Cl)cccc1Cl : active
C=CN(C(=O)N1CCN(c2cc3c(cc2F)c(=O)c(C(=O)O)cn3C2CC2)CC1)c1nc(-c2ccc(C)cc2)cs1 : inactive
CCCn1cnc2c(c1=N)C(c1ccc(Cl)cc1)c1sc3c(F)cccc3c1O2 (stereo unspecified) : inactive
C[C@H]1c2ccccc2CN1CCCOc1cc2c(cc1OCC1CC1)C1(CCCC1)C(N)=N2 : inactive

Exercise: State the result this test recorded for `O=C(COc1ccc(/C=C2\Oc3ccccc3C2=O)cc1)Nc1nccs1` .
Solution: inactive

Exercise: State the result this test recorded for COc1cc2c(cc1-c1c(C)noc1C)ncc1nc(C3CCOCC3)n(C3CCC(OC(F)F)CC3)c12 (stereo unspecified) .
Solution: inactive

Exercise: State the result this test recorded for `COc1ccc(Nc2nc(Nc3cc(C)[nH]n3)c3cc(OC)c(OC)cc3n2)cc1` .
Solution: active

Exercise: State the result this test recorded for `COc1ccc(C(=O)/C=C/c2ccc(C)cc2)cc1S(N)(=O)=O` .
Solution: inactive

Exercise: State the result this test recorded for `CN1/C(=C/C=C/c2n(Cc3ccc4ccccc4c3)c(Cl)c(Cl)[n+]2Cc2ccc3ccccc3c2)Oc2ccccc21` .
Solution: active

Exercise: State the result this test recorded for `Nc1ncc(-c2ccc3ncnc(N4CCc5ccc(Cl)cc54)c3c2)cn1` .
Solution: active

---

System: NCI-H460 lung
Assay notes: NCI-60 one-dose screen, 48 h (100 = growth as untreated, 0 = no growth, -100 = all killed)
Condition set: 10 µM unless noted
Compounds without any hit were thinned out: in the full panel of roughly 83,000, 20% have a hit.
Property measured: growth (%)
# unit: % | format: bare number

The cases that follow already have their growth on record.
O=C(Nc1ccc2[nH]ncc2c1)c1csc(Nc2ccccc2)n1 : 11.9
FC(F)(F)c1cc(N2CCCCC2)nc(NCCCNc2ccnc3cc(Cl)ccc23)n1 : 74.4
O=C1c2c(c3c4cccnc4[nH]c3c3ccc4ccccc4c23)C(=O)N1O : 32.4

Exercise: I would be grateful if you could share the reported growth for `COC(=O)[C@H]1Cc2c([nH]c3ccccc23)[C@H](c2ccc3c(c2)OCO3)N1` .
Solution: 106

Exercise: I would be grateful if you could share the reported growth for `CC1(C)CC[C@]2(CO)CC[C@]3(C)[C@H](CC[C@@H]4[C@@]5(C)CC[C@H](O)C(C)(C)[C@@H]5CC[C@]43C)[C@H]2[C@H]1O` .
Solution: 21

Exercise: I would be grateful if you could share the reported growth for `O=C1c2cccnc2C(=O)c2c1c(C(=O)OCCCN1CCOCC1)c1ccccn21` .
Solution: -60

---

Test system: BT-549 breast
Assay notes: NCI-60 one-dose screen, 48 h (100 = growth as untreated, 0 = no growth, -100 = all killed)
Condition set: 10 µM unless noted
About 83,000 compounds went through this panel and 20% of them were active in at least one assay; those are over-represented in the sample as a whole.
Returns Condition met if the recorded growth is greater than or equal to 60%, and Condition not met otherwise.

Exercise: Exam item: decide whether the reported growth for `Nc1ccc(N)c2c1C(=O)c1cccc([N+](=O)[O-])c1C2=O` is at least 60%.
Solution: Condition not met

Exercise: Exam item: decide whether the reported growth for `C/C(=N\NC(=O)c1ccc(C(C)(C)C)cc1)c1ccc(O)cc1O` is at least 60%.
Solution: Condition not met

Exercise: Exam item: decide whether the reported growth for `CCOC(=O)c1c(C)nc2c(c1N)C(=O)C(=O)N2CCc1ccc(OC)c(OC)c1` is at least 60%.
Solution: Condition met

---

Tested on: MDA-MB-435 melanoma
Assay notes: NCI-60 one-dose screen, 48 h (100 = growth as untreated, 0 = no growth, -100 = all killed)
Condition set: 10 µM unless noted
About 83,000 compounds went through this panel and 20% of them were active in at least one assay; those are over-represented in the sample as a whole.
# growth annotations
# unit: % | format: bare number

The cases that follow already have their growth on record.
CCc1ccc(Cc2cnc(NC(=O)c3cc(C)oc3C)s2)cc1 : -21.5
COc1cc2ncnc(Nc3ccc(S(=O)(=O)Nc4cc(C)on4)cc3)c2cc1OCCCN1CCOCC1 : 106
C#CC#CC#CC#CC#CC#CC#CC#CC[C@@H]1OC[C@H](COC(=O)O[C@@H](C(=O)O[C@H]2C[C@@]3(O)[C@@H](OC(=O)c4ccccc4)[C@@H]4[C@]5(OC(C)=O)CO[C@@H]5C[C@H](O)[C@@]4(C)C(=O)[C@H](OC(C)=O)C(=C2C)C3(C)C)[C@@H](NC(=O)c2ccccc2)c2ccccc2)O1 : -63.1
O=C(Nc1ncc(Cc2ccc(Cl)cc2)s1)C1=NCCCCN1 : 101
O=C(CSc1nnc(-c2cc(-c3ccc(Cl)cc3)nc3ccccc23)n1-c1ccccc1)Nc1ccc(Cl)cc1 : 102

Exercise: Provide the documented growth with MDA-MB-435 melanoma as the system for `COc1ccc2c(O)cc3c(c2c1)[C@H](CCl)CN3C(=O)c1cc2cc(NC(=O)CCN3CCOCC3)ccc2[se]1`
Solution: -67.5

Exercise: Provide the documented growth with MDA-MB-435 melanoma as the system for `COc1ccc(C(=O)/C=C/c2ccc(Cl)cc2)cc1S(N)(=O)=O`
Solution: 86.2

Exercise: Provide the documented growth with MDA-MB-435 melanoma as the system for CC1=NC(=S)NC(c2ccccc2)/C1=C1/CC(c2ccccc2O)NN1 (stereo unspecified)
Solution: 103

Exercise: Provide the documented growth with MDA-MB-435 melanoma as the system for `COc1ccc(CNc2c3ccccc3nc3ccccc23)cc1OC`
Solution: 29.4

Exercise: Provide the documented growth with MDA-MB-435 melanoma as the system for `COC(=O)[C@@H](Cc1c[nH]c2ccccc12)NC[C@@H](O)CN1C(=O)/C(=C\c2cc(OC)c(OC)c(OC)c2)c2ccccc21`
Solution: 56.1

Exercise: Provide the documented growth with MDA-MB-435 melanoma as the system for `O=c1ccc2c(ccc3ncccc32)o1`
Solution: 116

// data source = PubChem BioAssay (NCI)
